meta.source: paper PMC10145360

- measurement target: α-Thrombin (Homo sapiens, UniProt P00734)
- Construct: α-Thrombin; purchased Haematologic Technologies (Essex Junction, VT, USA)
- method notes: Inhibitory constant, chromogenic substrate assay
- Type: biochemical
measurement name: Ki

Short answer please: Ki, α-Thrombin (Homo sapiens, UniProt P00734), entry COc1cc(-c2cc(=O)c3c(O)c(OC)c(OC)cc3o2)ccc1O [CSL, 4,5-dihydroxy-3,6,7-trimethoxyflavone]
> 300 µM

---

- measurement target: Plasmin (Homo sapiens, UniProt P00747)
- Sequence (P00747 581-810 limits assumed): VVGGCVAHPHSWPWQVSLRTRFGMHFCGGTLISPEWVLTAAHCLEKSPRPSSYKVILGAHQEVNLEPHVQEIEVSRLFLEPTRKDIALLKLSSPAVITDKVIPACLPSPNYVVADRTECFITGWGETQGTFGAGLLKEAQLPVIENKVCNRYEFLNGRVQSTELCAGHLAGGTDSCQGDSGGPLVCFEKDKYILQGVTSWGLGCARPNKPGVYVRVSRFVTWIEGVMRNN
- Sequence (P00747 97-580 partner limits assumed): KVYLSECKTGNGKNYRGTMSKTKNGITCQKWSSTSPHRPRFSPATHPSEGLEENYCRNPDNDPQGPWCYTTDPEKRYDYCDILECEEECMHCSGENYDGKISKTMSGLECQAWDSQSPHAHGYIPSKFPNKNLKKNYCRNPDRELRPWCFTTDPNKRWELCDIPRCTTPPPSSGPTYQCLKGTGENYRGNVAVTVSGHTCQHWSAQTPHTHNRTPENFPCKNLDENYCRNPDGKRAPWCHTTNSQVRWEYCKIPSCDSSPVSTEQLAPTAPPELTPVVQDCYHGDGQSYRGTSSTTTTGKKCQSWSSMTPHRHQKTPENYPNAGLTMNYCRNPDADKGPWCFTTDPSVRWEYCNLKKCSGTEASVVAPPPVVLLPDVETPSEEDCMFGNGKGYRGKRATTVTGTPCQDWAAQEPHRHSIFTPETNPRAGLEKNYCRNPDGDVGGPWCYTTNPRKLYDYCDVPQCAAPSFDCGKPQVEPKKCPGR
measurement name: Ki

Which Ki value is on record for COc1cc(-c2cc(=O)c3c(O)c(OC)c(OC)cc3o2)ccc1O [CSL, 4,5-dihydroxy-3,6,7-trimethoxyflavone] ?
> 300 µM
